Attribution: paper PMC3544981

- TESTED_SYSTEM: α4β2*-nAChR binding sites
- METHOD_NOTES: [125I]-Epibatidine binding to membrane fragments, cortex
- Parameters: species or system mouse
- CONDITION_SET: read-out: Kd for [125I]-epibatidine, HT mice
MEASURED_QUANTITY: Kd (nM)
Lab book: enter the figure in nM, no units written.

// query Record request: Kd value, item Ic1ccc(C2CC3CCC2N3)cn1 (stereo not shown) [[^125I]-epibatidine]
// result 0.12

* * *

- TESTED_SYSTEM: α4β2*-nAChR binding sites (Mus musculus, UniProt O70174+Q9ERK7, V287L)
- Sequence (O70174 31-629): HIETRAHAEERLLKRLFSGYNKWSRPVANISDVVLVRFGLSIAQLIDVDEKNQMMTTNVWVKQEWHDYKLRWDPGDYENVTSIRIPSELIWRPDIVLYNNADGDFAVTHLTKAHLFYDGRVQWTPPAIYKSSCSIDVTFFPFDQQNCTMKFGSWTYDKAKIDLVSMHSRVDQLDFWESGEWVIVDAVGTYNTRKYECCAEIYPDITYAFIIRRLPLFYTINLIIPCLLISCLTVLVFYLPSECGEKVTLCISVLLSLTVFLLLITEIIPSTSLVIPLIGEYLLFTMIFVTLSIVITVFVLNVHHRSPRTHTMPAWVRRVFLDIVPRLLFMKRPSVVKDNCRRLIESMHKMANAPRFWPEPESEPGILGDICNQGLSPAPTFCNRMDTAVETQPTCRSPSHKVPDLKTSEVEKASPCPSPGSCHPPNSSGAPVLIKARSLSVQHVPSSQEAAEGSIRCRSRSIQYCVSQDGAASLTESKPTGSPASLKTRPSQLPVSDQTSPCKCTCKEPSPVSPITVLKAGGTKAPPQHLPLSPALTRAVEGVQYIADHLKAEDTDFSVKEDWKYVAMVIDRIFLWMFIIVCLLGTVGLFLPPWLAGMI
- Sequence (Q9ERK7 26-501 V287L): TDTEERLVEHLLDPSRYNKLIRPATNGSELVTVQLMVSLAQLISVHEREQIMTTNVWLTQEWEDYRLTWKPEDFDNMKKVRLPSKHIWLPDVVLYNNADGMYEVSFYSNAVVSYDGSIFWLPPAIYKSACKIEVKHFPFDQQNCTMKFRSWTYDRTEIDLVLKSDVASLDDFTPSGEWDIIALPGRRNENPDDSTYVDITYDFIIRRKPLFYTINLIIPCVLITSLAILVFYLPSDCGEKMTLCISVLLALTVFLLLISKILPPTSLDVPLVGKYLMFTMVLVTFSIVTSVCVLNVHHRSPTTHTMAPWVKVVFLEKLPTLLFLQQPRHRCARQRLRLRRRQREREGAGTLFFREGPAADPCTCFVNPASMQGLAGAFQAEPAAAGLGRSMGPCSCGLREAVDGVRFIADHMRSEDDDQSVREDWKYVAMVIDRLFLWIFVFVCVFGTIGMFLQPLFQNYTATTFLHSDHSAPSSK
- METHOD_NOTES: [125I]-Epibatidine binding to membrane fragments, thalamus
- CONDITION_SET: read-out: Kd for [125I]-epibatidine, MT mice
MEASURED_QUANTITY: Kd (nM)
Lab book: enter the figure in nM, no units written.

// query Record request: Kd value, item Ic1ccc(C2CC3CCC2N3)cn1 (stereo not shown) [[^125I]-epibatidine]
// result 0.11

* * *

- TESTED_SYSTEM: α4β2*-nAChR binding sites (Mus musculus, UniProt O70174+Q9ERK7)
- Sequence (Q9ERK7 26-501, one chain of several): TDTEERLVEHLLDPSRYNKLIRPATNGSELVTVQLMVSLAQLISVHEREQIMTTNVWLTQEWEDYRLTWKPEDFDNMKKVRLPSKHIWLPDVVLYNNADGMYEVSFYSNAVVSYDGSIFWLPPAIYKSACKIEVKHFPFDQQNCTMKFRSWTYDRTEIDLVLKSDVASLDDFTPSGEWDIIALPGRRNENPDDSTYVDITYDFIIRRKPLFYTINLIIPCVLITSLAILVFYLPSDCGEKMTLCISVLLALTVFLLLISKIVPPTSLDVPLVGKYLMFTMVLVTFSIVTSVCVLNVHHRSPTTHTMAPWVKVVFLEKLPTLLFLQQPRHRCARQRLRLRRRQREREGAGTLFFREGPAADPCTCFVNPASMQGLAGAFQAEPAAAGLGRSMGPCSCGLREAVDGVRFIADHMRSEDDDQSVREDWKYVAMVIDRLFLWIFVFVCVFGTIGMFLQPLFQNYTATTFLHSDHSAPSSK
- METHOD_NOTES: [125I]-Epibatidine binding to membrane fragments, cortex
- CONDITION_SET: read-out: Kd for [125I]-epibatidine, WT mice
MEASURED_QUANTITY: Kd

// query Record request: Kd value, item Ic1ccc(C2CC3CCC2N3)cn1 (stereo not shown) [[^125I]-epibatidine]
// result 0.15 nM

* * *

- TESTED_SYSTEM: α4β2*-nAChR binding sites (Mus musculus, UniProt O70174+Q9ERK7)
- METHOD_NOTES: [125I]-Epibatidine binding to membrane fragments, thalamus
- CONDITION_SET: read-out: Kd for [125I]-epibatidine, WT mice
MEASURED_QUANTITY: Kd
Form entry: enter the amount, then its unit.

// query Record request: Kd value, item Ic1ccc(C2CC3CCC2N3)cn1 (stereo not shown) [[^125I]-epibatidine]
// result 0.15 nM

* * *

- TESTED_SYSTEM: α4β2*-nAChR binding sites
- METHOD_NOTES: [125I]-Epibatidine binding to membrane fragments, thalamus
- Set-up: species or system mouse
- CONDITION_SET: read-out: Kd for [125I]-epibatidine, HT mice
MEASURED_QUANTITY: Kd (nM)
Lab book: enter the figure in nM, no units written.

// query Record request: Kd value, item Ic1ccc(C2CC3CCC2N3)cn1 (stereo not shown) [[^125I]-epibatidine]
// result 0.08

* * *

- TESTED_SYSTEM: α4β2*-nAChR binding sites (Mus musculus, UniProt O70174+Q9ERK7, V287L)
- METHOD_NOTES: [125I]-Epibatidine binding to membrane fragments, cortex
- CONDITION_SET: read-out: Kd for [125I]-epibatidine, MT mice
MEASURED_QUANTITY: pKd
For clarity, pKd is expressed as the negative log10 of concentration in mol/L.

// query Record request: pKd value, item Ic1ccc(C2CC3CCC2N3)cn1 (stereo not shown) [[^125I]-epibatidine]
// result 9.89
